- experiment description: Cytotoxicity against monkey Vero cells assessed as cell viability at 50 ug/ml by WST-1 assay relative to control
- Format: cell-based
- run conditions: chlorocebus sabaeus, read-out: Activity
property label: viability at 50 ug/ml

[
  {
    "input smiles": "COC(=O)[C@@H]1COC(/C=C/c2ccc(C)cc2)=N1",
    "result": "85.1%"
  },
  {
    "input smiles": "Cc1ccc(/C=C/C(=O)O/C(=N/C2CCCCC2)NC2CCCCC2)cc1",
    "result": "79.3%"
  },
  {
    "input smiles": "COC(=O)[C@H](COC(=O)/C=C/c1ccccc1)NC(=O)/C=C/c1ccccc1",
    "result": "16.8%"
  },
  {
    "input smiles": "COC(=O)[C@@H]1COC(/C=C/c2ccc(F)cc2)=N1",
    "result": "91.6%"
  },
  {
    "input smiles": "COC(=O)c1coc(/C=C/c2ccc(C)cc2)n1",
    "result": "102%"
  },
  {
    "input smiles": "COC(=O)c1coc(/C=C/c2ccc(OC)cc2)n1",
    "result": "99.6%"
  },
  {
    "input smiles": "COC(=O)[C@@H]1COC(/C=C/c2ccc(OC)cc2)=N1",
    "result": "94.8%"
  },
  {
    "input smiles": "COC(=O)[C@H](COC(=O)/C=C/c1ccc(C)cc1)NC(=O)/C=C/c1ccc(C)cc1",
    "result": "28.8%"
  },
  {
    "input smiles": "COC(=O)c1coc(/C=C/c2ccccc2)n1",
    "result": "99.6%"
  },
  {
    "input smiles": "COC(=O)c1coc(/C=C/c2ccc(F)cc2)n1",
    "result": "102%"
  },
  {
    "input smiles": "COC(=O)[C@H](CO)NC(=O)/C=C/c1ccccc1",
    "result": "97.1%"
  }
]

* * *

- experiment description: Cytotoxicity against monkey Vero cells assessed as cell viability at 100 ug/ml by WST-1 assay relative to control
- Assay type: cell-based
- run conditions: chlorocebus sabaeus, read-out: Activity
property label: viability at 100 ug/ml (%)

[
  {
    "input smiles": "COC(=O)c1coc(/C=C/c2ccc(OC)cc2)n1",
    "property label": "viability at 100 ug/ml",
    "quantitative result": 96.8
  },
  {
    "input smiles": "COC(=O)[C@H](CO)NC(=O)/C=C/c1ccccc1",
    "property label": "viability at 100 ug/ml",
    "quantitative result": 99.4
  },
  {
    "input smiles": "COC(=O)[C@@H]1COC(/C=C/c2ccc(F)cc2)=N1",
    "property label": "viability at 100 ug/ml",
    "quantitative result": 18.6
  },
  {
    "input smiles": "COC(=O)[C@@H]1COC(/C=C/c2ccc(OC)cc2)=N1",
    "property label": "viability at 100 ug/ml",
    "quantitative result": 20.9
  },
  {
    "input smiles": "COC(=O)[C@@H]1COC(/C=C/c2ccc(C)cc2)=N1",
    "property label": "viability at 100 ug/ml",
    "quantitative result": 17
  },
  {
    "input smiles": "COC(=O)c1coc(/C=C/c2ccccc2)n1",
    "property label": "viability at 100 ug/ml",
    "quantitative result": 102
  },
  {
    "input smiles": "COC(=O)c1coc(/C=C/c2ccc(F)cc2)n1",
    "property label": "viability at 100 ug/ml",
    "quantitative result": 99
  },
  {
    "input smiles": "COC(=O)[C@H](COC(=O)/C=C/c1ccc(F)cc1)NC(=O)/C=C/c1ccc(F)cc1",
    "property label": "viability at 100 ug/ml",
    "quantitative result": 8.65
  },
  {
    "input smiles": "COC(=O)[C@H](CO)NC(=O)/C=C/c1ccc(C)cc1",
    "property label": "viability at 100 ug/ml",
    "quantitative result": 101
  },
  {
    "input smiles": "COC(=O)[C@H](COC(=O)/C=C/c1ccc(OC)cc1)NC(=O)/C=C/c1ccc(OC)cc1",
    "property label": "viability at 100 ug/ml",
    "quantitative result": 11.4
  },
  {
    "input smiles": "COC(=O)[C@@H]1COC(/C=C/c2ccccc2)=N1",
    "property label": "viability at 100 ug/ml",
    "quantitative result": 12.4
  },
  {
    "input smiles": "O=C(/C=C/c1ccc(F)cc1)O/C(=N/C1CCCCC1)NC1CCCCC1",
    "property label": "viability at 100 ug/ml",
    "quantitative result": 85.5
  },
  {
    "input smiles": "COC(=O)c1coc(/C=C/c2ccc(C)cc2)n1",
    "property label": "viability at 100 ug/ml",
    "quantitative result": 100
  },
  {
    "input smiles": "COC(=O)[C@H](CO)NC(=O)/C=C/c1ccc(OC)cc1",
    "property label": "viability at 100 ug/ml",
    "quantitative result": 103
  },
  {
    "input smiles": "COC(=O)[C@H](COC(=O)/C=C/c1ccc(C)cc1)NC(=O)/C=C/c1ccc(C)cc1",
    "property label": "viability at 100 ug/ml",
    "quantitative result": 18.7
  },
  {
    "input smiles": "COC(=O)[C@H](COC(=O)/C=C/c1ccccc1)NC(=O)/C=C/c1ccccc1",
    "property label": "viability at 100 ug/ml",
    "quantitative result": 10.7
  },
  {
    "input smiles": "Cc1ccc(/C=C/C(=O)O/C(=N/C2CCCCC2)NC2CCCCC2)cc1",
    "property label": "viability at 100 ug/ml",
    "quantitative result": 95.5
  },
  {
    "input smiles": "O=C(/C=C/c1ccccc1)O/C(=N/C1CCCCC1)NC1CCCCC1",
    "property label": "viability at 100 ug/ml",
    "quantitative result": 83.8
  }
]
